# experiment_notes: NCI Yeast Anticancer Drug Screen. Data for the rad52 strain (AID 147);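 further: 0% = growth of vehicle-treated control cultures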
# details: S. cerevisiae rad52 mutant growth inhibition; at 1.2 µM; active compounds read high
Compounds without any hit were thinned out: in the full panel of roughly 79,000, 15% have a hit.
property_measured: growth inhibition (%)
Numbers only, in %.

Data request: What does the record list as growth inhibition for Cn1c(=O)c2c(nc(N)n2C2OC(CO)C(O)C2O)n(C)c1=O (stereo unspecified) ?
Data returned: -2

Data request: Repeat with `COc1ccc(/C=C/c2sc3ccccc3[n+]2CCCCI)cc1OC`
Data returned: -8

Data request: Repeat with `O=Cc1ccc2c(c1)C(=O)c1ccccc1C2=O`
Data returned: 4

Data request: Repeat with `COc1c(O)c(C=O)c(Br)c(C=O)c1O`
Data returned: 2

Data request: Repeat with `CC(C)(CCCCC(C)(C)[N+](C)(C)C)[N+](C)(C)C`
Data returned: -4

Kindly consider the entry below.
Data request: What does the record list as growth inhibition for O=C1CSC(c2cccc(Cl)c2)N1c1ccc(-c2ccc(-n3c(-c4ccccc4)nc4ccccc4c3=O)cc2)cc1 (stereo unspecified) ?
Data returned: 1
